molecular target: PolQ ATPase enzyme (1-894) (Homo sapiens (Human), UniProt O75417); experiment: Polθ ATPase enzymatic assay (0.5 nM enzyme concentration), ADP-Glo; type: biochemical; conditions: 0.5 nM PolQ ATPase enzyme (1-894); average IC50
Sequence (O75417 1-894): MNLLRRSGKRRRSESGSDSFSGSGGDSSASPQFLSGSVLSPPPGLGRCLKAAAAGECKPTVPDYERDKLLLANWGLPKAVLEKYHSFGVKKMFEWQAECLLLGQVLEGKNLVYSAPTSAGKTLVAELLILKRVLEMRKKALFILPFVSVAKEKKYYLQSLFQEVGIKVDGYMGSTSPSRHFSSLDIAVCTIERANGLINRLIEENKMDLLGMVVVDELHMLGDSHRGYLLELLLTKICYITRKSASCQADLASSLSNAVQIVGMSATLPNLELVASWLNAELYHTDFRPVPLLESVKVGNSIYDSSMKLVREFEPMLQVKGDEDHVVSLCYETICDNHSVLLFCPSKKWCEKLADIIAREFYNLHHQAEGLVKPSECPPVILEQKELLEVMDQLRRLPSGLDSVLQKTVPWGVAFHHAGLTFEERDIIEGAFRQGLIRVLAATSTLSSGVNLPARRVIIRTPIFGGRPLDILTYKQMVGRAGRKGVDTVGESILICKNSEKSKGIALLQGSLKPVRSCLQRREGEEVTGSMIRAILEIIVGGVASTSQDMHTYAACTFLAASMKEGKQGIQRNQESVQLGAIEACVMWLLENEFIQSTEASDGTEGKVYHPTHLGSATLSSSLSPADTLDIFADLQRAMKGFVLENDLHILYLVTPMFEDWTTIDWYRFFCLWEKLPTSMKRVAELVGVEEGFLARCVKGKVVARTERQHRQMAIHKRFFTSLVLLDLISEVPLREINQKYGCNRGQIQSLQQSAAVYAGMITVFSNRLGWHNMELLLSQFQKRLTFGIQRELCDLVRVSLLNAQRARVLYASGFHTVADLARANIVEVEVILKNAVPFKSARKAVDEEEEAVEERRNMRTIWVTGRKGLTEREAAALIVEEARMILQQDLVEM
observed property: IC50

COc1ccc(F)cc1-c1cnccc1C(=O)Nc1nnc(C#Cc2ccc(C#N)cc2)s1; 3.5 nM
COc1cnc(C(F)F)cc1-c1cc(Oc2cc(N3CCOCC3)ccn2)ncc1C(=O)Nc1nnc(C#CC2CC2)s1; 1.5 nM
COc1cnc(C(F)F)cc1-c1cc(N2CCN(CC(F)(F)F)C3(CC3)C2=O)ncc1C(=O)Nc1nnc(C#CC2CC2)s1; 2.7 nM
COc1cnc(C(F)F)cc1-c1cc(N2CCC(C)CCC2=O)ncc1C(=O)Nc1nnc(C#CC2CC2)s1 (racemic); 0.7 nM
COc1cnc(C(F)F)cc1-c1cc(-n2ccc(C)cc2=O)ncc1C(=O)Nc1nnc(C#CC2CC23CC3)s1 (racemic); < 0.25 nM

Okay, now this compound:
Task: Please state recorded IC50 (tested on PolQ ATPase enzyme (1-894) (Homo sapiens (Human), UniProt O75417)) of C#C[C@H]1C[C@@H]1c1nnc(NC(=O)c2cnc(-n3ccc(OC4CCN(C)C4)cc3=O)cc2-c2cc(C(F)F)ncc2OC)s1 (single isomer, unassigned)
Output: 3.5 nM
